Entries annotated with measured % parasite recognition
Target: erythrocytes infected with P. falciparum field isolate 9106
Test: flow cytometry, staining of IEs
Give the number; % is assumed, so skip it.

[
  {
    "binder": "MGD30 (antibody) VH: QVQLQESGPGLVKPSETLSLSCAVTGGSITSSKWWTWVRQGPDKGLEWIGKIYHNGTTNYNPSLKSRVAMSVDKSRNQFSLRLTSVTAADTALYYCATASPFKSHHRTTEKLPRPSISAEPGTVIPLGSRVTFVCRGPVGVQTFRLERETSFTYNDTEDVSQVSPSESEARFRIDSVSEGYAGPYRCVYYKAPKWSEQSDYLDLLVKGEDVTWALTQPQLDPRACPQGDLRMSTDIYCMDVWGKGTTVTVSS VL: AIRLTQSPSSLSASIGDRVTITCRASQDISTFLAWYQQESGKAPRLLIFAASTLQTGVPSRFSGSGSGTDFTLTISGLQSEDFATYYCQQYYCFPPDFGQGTRLDIK",
    "% parasite recognition [%]": 4.2
  }
]

Given the binder MGD35 (antibody) VH: QVQLQESGPGLVKPSGTLSLTCAVSGASISSINWWSWVRQTPEKGLEWIGQIHHNGSTNYNPSLKSRVAISVDKSKNQFSLKLTSFTAADTAVYYCATASSLKSQRDTNLPRPSLSAEPGTVIPLGSPVTFVCRGPVGVHTFRLERAGRSTYNDTEDVSHPSPSESEARFRIDSVSEGNAGPYRCVYYKSSKWSEESYCLDLLVKTEDVTWARPQPQLDPRACPQGDLRISTDFYYMDVWGKGTTVTVSS VL: AIRMTQSPSSLSASTGDRVTITCRTSQAIGTYLAWYQQNPGKAPNLLIYNASTLQSGVPSRFSASGSGTDFTLTISGLQSDDFVTYFCQHYYNYPPAFGQGTRLEIQ , what is its reported % parasite recognition? 6.1
